Target: Ubiquitin carboxyl-terminal hydrolase BAP1 (Homo sapiens) (UniProt Q92560)
Sequence (Q92560 whole entry, looked up): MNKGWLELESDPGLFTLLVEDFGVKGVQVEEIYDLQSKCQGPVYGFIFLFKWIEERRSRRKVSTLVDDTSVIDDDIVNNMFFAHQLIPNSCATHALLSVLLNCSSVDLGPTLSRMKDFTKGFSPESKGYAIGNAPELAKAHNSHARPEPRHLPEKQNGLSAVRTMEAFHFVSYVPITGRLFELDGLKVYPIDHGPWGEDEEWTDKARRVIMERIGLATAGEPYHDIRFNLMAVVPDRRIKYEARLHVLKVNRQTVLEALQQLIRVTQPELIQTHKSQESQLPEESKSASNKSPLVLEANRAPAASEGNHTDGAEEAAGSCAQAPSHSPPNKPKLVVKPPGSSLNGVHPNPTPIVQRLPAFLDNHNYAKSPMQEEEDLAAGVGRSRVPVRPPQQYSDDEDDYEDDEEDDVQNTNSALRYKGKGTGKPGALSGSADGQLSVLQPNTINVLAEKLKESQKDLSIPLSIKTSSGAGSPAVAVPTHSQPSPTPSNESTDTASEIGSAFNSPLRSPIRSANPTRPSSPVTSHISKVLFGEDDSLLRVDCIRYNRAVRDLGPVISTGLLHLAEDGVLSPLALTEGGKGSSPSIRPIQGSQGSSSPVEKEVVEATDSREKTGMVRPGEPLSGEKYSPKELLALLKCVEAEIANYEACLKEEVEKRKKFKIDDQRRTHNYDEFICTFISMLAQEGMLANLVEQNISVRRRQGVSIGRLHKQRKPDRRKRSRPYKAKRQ
Assay: inhibitors of BAP1 deubiquitinase, primary screen, biochemical, Ub-AMC fluorescence, kinetic (AID 436);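 also: 100% = DMSO wells rate and 0% = substrate alone blank rate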
Conditions: recombinant BAP1, Ub-AMC hydrolysis fluorescence kinetic; at 20 µM; hits give low values
In all, about 72,000 compounds went through this assay and about 350 (0.49%) were called active. For the sample, actives were picked, then their nearest neighbours and some compounds at random.
Readings of activity remaining (% of control) for the listed compounds

compound	activity remaining (% of control)
Cc1cc(Br)ccc1N1C(=O)C2CCCCC2C1=O (configuration not stated)	93.8% (inactive)
Cc1ccc[n+](CC(=O)c2ccc(Cl)cc2)c1C	57.4% (inactive)
N#Cc1c(NC(=O)CCCN2C(=O)c3ccccc3C2=O)oc(-c2ccccc2)c1-c1ccccc1	56.8% (inactive)
CCOc1ccc(C(=O)Nc2ccc3c(c2)oc2ccccc23)cc1	144% (inactive)
Cn1c(C(C)(O)C(O)(c2ccccc2)c2ccccc2)nc2ccccc21 (configuration not stated)	90.5% (inactive)

What value of activity remaining (% of control) has been recorded for this entry: CCOC(=O)c1c(N=c2oc3ccccc3cc2C(=O)Nc2ccc(F)cc2)sc(C)c1C
63.1% (inactive)

activity remaining (% of control) for CC(=O)CCN1C(=O)C(=O)c2ccccc21 ?
83.2% (inactive)

Quick one: activity remaining (% of control) for O=C(Nc1nc2c(s1)C(=O)CCC2)c1ccccc1Cl ?
51.9% (inactive)

Return reported activity remaining (% of control); argument: CC(C)(C)C(=O)Nc1ccc(C(=O)Nc2nccs2)cc1
63.4% (inactive)

// query activity remaining (% of control) value for entry Cn1c(C#CC(C)(C)O)cc2ccccc21
106% (inactive)

What measured activity remaining (% of control) goes with Cn1c(=O)[nH]c(=O)c2c1nc(N1CCOCC1)n2CCO ?
159% (inactive)

Suppose we examine the compound Cc1ccc(S(=O)(=O)N2CCC(N3CCCCCC3)CC2)cc1 ; what activity remaining (% of control) value has been reported?
79.2% (inactive)

---

Molecular target: Ubiquitin carboxyl-terminal hydrolase BAP1 (Homo sapiens) (UniProt Q92560)
Assay: inhibitors of BAP1 deubiquitinase, primary screen, biochemical, Ub-AMC fluorescence, kinetic (AID 436);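 also: 100% = DMSO wells rate and 0% = substrate alone blank rate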
Conditions: recombinant BAP1, Ub-AMC hydrolysis fluorescence kinetic; at 20 µM; hits give low values
Screen size: about 72,000 compounds; about 350 (0.49%) were called active. Only a selection was taken, and actives are over-represented in it overall.
readoutKind: activity remaining (% of control) (%)
State the answer as a number, implicitly in %.

Fill blank: measured activity remaining (% of control) of the molecule COc1cccc(NC(=O)c2ccc(N(Cc3ccccc3)S(C)(=O)=O)cc2)c1 is ____.
89.5

So what's the measured activity remaining (% of control) for this one? COc1ccc(NC(=O)c2cc3ccccc3oc2=O)cc1Cl
75.5

Quick one: activity remaining (% of control) of COc1ccc(C2C(N3C(=O)c4cccc([N+](=O)[O-])c4C3=O)C(=O)N2c2ccc(C)c(C)c2)cc1OC (stereo unspecified) ?
85.8

---

Biological target: Ubiquitin carboxyl-terminal hydrolase BAP1 (Homo sapiens) (UniProt Q92560)
Assay: inhibitors of BAP1 deubiquitinase, primary screen, biochemical, Ub-AMC fluorescence, kinetic (AID 436);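 also: 100% = DMSO wells rate and 0% = substrate alone blank rate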
Conditions: recombinant BAP1, Ub-AMC hydrolysis fluorescence kinetic; at 20 µM
The whole screen tested about 72,000 compounds, of which about 350 (0.49%) were called active.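 The calls were made as follows: active = activity remaining at or below 50% of control, provided the compound also passes the data quality filters; inactive = the rest, including low values that fail the filters.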 The full list was thinned out, with actives kept by preference.
Bench note: report the call from true (1) for active, false (0) for inactive

compound	className
CCOc1ccccc1NC(=O)c1c(NC(=O)c2cccs2)sc2c1CCC(C)C2 (stereo not given)	false (0)
CCCOC(=O)c1cccc(NC(=O)COc2cccc(Cl)c2)c1	false (0)
O=c1[nH]nc(SCc2ccc(Cl)cc2)c(=O)[nH]1	false (0)
Cc1ccc(S(=O)(=O)NCCN=Cc2ccc3c(c2)OCO3)cc1	false (0)
CC(C)C(=O)N1c2ccccc2NC2=C(C(=O)CC(c3ccccc3)C2)C1c1ccc(F)cc1 (stereo not given)	false (0)
O=C(OCCN1C(=O)c2ccccc2C1=O)c1ccc([N+](=O)[O-])cc1	false (0)

Lab log entry: CCOC(=O)C1C(=O)C=C(C=Cc2cccs2)CC1c1ccccc1 (stereo not given) — outcome as called in the assay?
false (0)

Record request — test call for COc1ccc(NC(=O)c2sc(-c3ccccc3)nc2C)cc1
false (0)

GET /call?item= COC(=O)C1=C(C)NC2=C(C(=O)CC(C)(C)C2)C1c1cccc(O)c1 (stereo not given) returns the recorded outcome of this test.
false (0)

What call does the record list for CC(C)c1ccc2c(c1)c(SC(C)(C)C)c(CC(C)(C)C(=O)O)n2Cc1ccc(Cl)cc1 ?
true (1)

---

Biological target: Ubiquitin carboxyl-terminal hydrolase BAP1 (Homo sapiens)
Experiment: inhibitors of BAP1 deubiquitinase, primary screen, biochemical, Ub-AMC fluorescence, kinetic (AID 436);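 also: 100% = DMSO wells rate and 0% = substrate alone blank rate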
Details: recombinant BAP1, Ub-AMC hydrolysis fluorescence kinetic; at 20 µM; hits give low values
In all, about 72,000 compounds went through this assay and about 350 (0.49%) were called active. This is one part of a sample in which actives are shown more often than they occur.
readoutKind: activity remaining (% of control) (%)
Field format: number, assumed %, no unit text.

Consider the reported activity remaining (% of control) for these compounds:
compound	readoutKind	numericReadout
COc1ccccc1NS(=O)(=O)c1cc(C(=O)c2ccc(Br)cc2)ccc1C	activity remaining (% of control)	78.7
O=C1C2C3C=CC(O3)C2C(=O)N1c1ccc(Br)cc1[N+](=O)[O-] (stereo not drawn)	activity remaining (% of control)	77.6
CCCCNC(=O)c1c[nH]c2ccc(S(=O)(=O)Nc3ccc(OCC)cc3)cc2c1=O	activity remaining (% of control)	32.9

Returns the measured activity remaining (% of control) for the input compound. Input: Cc1nc(-c2ccc(NC(=O)c3cccc(Br)c3)cc2)cs1
162

Which activity remaining (% of control) value is on record for COc1ccc(-n2nc3c(c2NC(=O)Cc2ccccc2)CSC3)cc1 ?
73.5

Give its activity remaining (% of control) value. Item: N#Cc1c(/N=C/N2CCCC2)oc(-c2ccccc2)c1-c1ccccc1
41.5

Find the recorded activity remaining (% of control) belonging to Cc1ccc(OCC(=O)Nc2ccc(C)c(Cl)c2)cc1C and report it.
81.6

Please report the recorded activity remaining (% of control) for O=C(Nc1nnc(CCS(=O)(=O)c2ccc3ccccc3c2)s1)c1ccc(F)cc1 .
64.8

Entry Cc1ccc2cccc(NC(=O)C34CC5CC(CC(C5)C3)C4)c2n1 : reported activity remaining (% of control) = ?
149

Entry CCCCOC(=O)C1=C(C)NC2=C(C(=O)CCC2)C1c1ccc(OCC)c(OC)c1 (stereo not drawn) : reported activity remaining (% of control) = ?
72.5

Consider the compound shown here: CCC(C)(C)n1nnnc1C(c1cccs1)N1CCN(Cc2ccccc2)CC1 (stereo not drawn) What is its recorded activity remaining (% of control)?
85.8

Sample COc1cccc(NS(=O)(=O)c2ccc3[nH]cc(C(=O)NCCCOC(C)C)c(=O)c3c2)c1 — what was its activity remaining (% of control)?
79.5

Requested field: activity remaining (% of control). Item: CC1=C(C(=O)OCCc2ccccc2)C(c2ccc([N+](=O)[O-])cc2)NC(=O)N1C (stereo not drawn)
72.8

Which activity remaining (% of control) value belongs to CCN(CC)c1ccc2cc(-c3nc4ccc(Cl)cc4[nH]3)c(=O)oc2c1 ?
278

Fill in the blank: the reported activity remaining (% of control) of CC(C)(C)n1nnnc1C(c1cccs1)N(Cc1cccnc1)CC1CCCO1 (stereo not drawn) is ____.
80.9

Form field: reported activity remaining (% of control) of O=C(c1ccccc1)N1CCN(c2ccc([N+](=O)[O-])cc2F)CC1
64.8

Name the reported activity remaining (% of control) value associated with the compound O=C(Oc1ccc2ccccc2c1Br)c1ccncc1
56.6

Item under review: N#Cc1cccc2c1-c1ccc([N+](=O)[O-])cc1C2=O . Reported activity remaining (% of control)?
96.3
